# testedTarget: UniProt:P10415
# Sequence (P10415 whole entry): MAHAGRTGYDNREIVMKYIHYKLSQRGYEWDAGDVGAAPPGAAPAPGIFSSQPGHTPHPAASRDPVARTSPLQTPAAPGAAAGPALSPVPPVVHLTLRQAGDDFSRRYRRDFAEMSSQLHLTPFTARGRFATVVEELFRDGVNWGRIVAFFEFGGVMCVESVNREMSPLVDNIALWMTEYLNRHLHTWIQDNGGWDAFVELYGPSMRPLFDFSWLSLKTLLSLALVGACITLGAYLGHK
testReadout: Kd

Looking up `CCC12CC(C3=C(CN4CCN(c5ccc(C(=O)NS(=O)(=O)c6ccc(OCC7(F)CCOCC7)c([N+](=O)O)c6)c(Oc6cnc7[nH]ccc7c6)c5)CC4)CCC(C)(C)C3)(C1)C2` , I see its Kd listed as < 10 nM
